molecular target: Caspase-6 (Homo sapiens); test: inhibition of CASP6 peptide cleavage – biochemical, VEID-R110 fluorescence, cherry-pick, dose response (AID 720632); conditions: caspase-6, VEID-R110 fluorogenic substrate; at 26 µM (top of the series)
Activity calls are given as the source filed them. No rule for the calls is given here.
reportedEndpoint: activity change, negative = inhibition

Consider the reported activity change, negative = inhibition for these molecules:
O=C(O)c1cccc(S(=O)(=O)NNc2ccccc2C(F)(F)F)c1 : inactive
Cc1onc(-c2ccc(Cl)cc2Cl)c1-c1csc(N/N=C/c2ccccc2Cl)n1 : inactive
CCCN1C[C@H](C)[C@H](OC)CN(C)C(=O)c2ccc(NC(=O)CC)cc2OC[C@H]1C : inactive
Cc1cc(C)cc(N(CC(=O)NC(C)C)C(=O)CCC(=O)Nc2ccccn2)c1 : inactive
COc1ccc(NC(=O)C(F)(OC)C(F)(F)F)c(OC)c1 (stereo unspecified) : inactive

Answer with the recorded activity change, negative = inhibition of "Cc1ccc(N2C(=O)Cc3ccccc3C2=O)cc1" only. inactive

Answer with the recorded activity change, negative = inhibition of "Cc1ccc(-c2[nH]c3cc(C(=O)NCCCn4ccnc4)ccc3c(=O)c2O)cc1" only. inactive

Reference source: PubChem BioAssay AID720632
